Kindly supply the reported TPAEE, ear edema values for the records listed here.
test system: ear edema induced by topical application of TPA (phorbol 12-myristate acetate); assay: TPA-Induced Ear Edema (TPAEE); assay type: in vivo, Female Swiss Webster mice; settings: 10 μg (10 μg/ear), TPA 10 μg/ear, five hours
Give bare numbers, in %.

Some solved entries appear below for comparison.
>  <Smiles repr>
O=[N+]([O-])c1cc[n+]([O-])cc1Nc1cccc2ccccc12

>  <TPAEE, ear edema, %>
-40

$$$$
>  <Smiles repr>
O=[N+]([O-])c1cc[n+]([O-])cc1Oc1ccc(Cl)c2ccccc12

>  <TPAEE, ear edema, %>
-41

$$$$
>  <Smiles repr>
Cl.Nc1cnccc1Oc1cccc2ccccc12

>  <TPAEE, ear edema, %>
-40

$$$$
>  <Smiles repr>
O=[N+]([O-])c1cnccc1Oc1cccc2ccccc12

>  <TPAEE, ear edema, %>
-72

$$$$

Now turn to the next compound.
Which TPAEE, ear edema is listed for `O=[N+]([O-])c1cc[n+]([O-])cc1Oc1ccc2cc(Br)ccc2c1` ?
-43
